- study-system: 6His-Tev-LRRK2 (1326-2527) (Homo sapiens, UniProt Q5S007)
- Construct: A LRRK2 cDNA encoding residues 1326-2527 was received from Dundee University; made in house; host or cells: Spodoptera frugiperda (Sf9) insect cells, baculovirus (pFB-HTb)
- Sequence (Q5S007 1326-2527): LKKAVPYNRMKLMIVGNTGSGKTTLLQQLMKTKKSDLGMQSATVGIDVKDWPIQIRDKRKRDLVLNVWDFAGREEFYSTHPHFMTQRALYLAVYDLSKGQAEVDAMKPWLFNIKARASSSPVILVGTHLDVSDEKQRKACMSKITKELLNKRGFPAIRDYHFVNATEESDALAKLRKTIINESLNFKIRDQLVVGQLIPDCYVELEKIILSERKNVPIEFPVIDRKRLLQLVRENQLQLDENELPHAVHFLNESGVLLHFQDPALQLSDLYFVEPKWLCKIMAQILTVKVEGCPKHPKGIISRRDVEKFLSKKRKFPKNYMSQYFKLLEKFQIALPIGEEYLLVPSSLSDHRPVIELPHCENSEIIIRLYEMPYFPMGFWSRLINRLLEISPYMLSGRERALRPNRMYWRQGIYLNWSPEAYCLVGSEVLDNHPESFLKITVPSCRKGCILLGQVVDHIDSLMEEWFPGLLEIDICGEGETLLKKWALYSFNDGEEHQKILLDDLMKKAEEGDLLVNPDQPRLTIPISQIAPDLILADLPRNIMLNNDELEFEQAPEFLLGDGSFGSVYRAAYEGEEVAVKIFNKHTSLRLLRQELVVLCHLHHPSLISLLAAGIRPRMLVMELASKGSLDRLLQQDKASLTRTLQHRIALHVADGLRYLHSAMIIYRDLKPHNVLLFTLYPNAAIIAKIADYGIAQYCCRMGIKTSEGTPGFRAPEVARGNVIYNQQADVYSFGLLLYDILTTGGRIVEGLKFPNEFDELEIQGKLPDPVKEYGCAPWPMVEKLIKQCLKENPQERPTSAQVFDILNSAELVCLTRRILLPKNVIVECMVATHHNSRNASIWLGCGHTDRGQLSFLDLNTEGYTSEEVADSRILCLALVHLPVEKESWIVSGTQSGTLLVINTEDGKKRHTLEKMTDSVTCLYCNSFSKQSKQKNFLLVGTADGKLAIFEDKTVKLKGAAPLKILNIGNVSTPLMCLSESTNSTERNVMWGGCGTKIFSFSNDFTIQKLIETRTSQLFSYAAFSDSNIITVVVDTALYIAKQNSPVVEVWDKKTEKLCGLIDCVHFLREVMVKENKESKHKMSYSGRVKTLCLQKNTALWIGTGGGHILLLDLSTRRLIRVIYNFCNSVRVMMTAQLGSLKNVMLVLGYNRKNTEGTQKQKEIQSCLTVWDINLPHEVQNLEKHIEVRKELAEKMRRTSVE
- experiment-notes: LRRK2 peptide substrate assay
- Format: biochemical
- run-parameters: mean pIC50 of multiple test results; stated as threshold; read-out: pIC50 in the LRRK2 peptide substrate assay (bounds) (converted)

compound: Cn1cc(-c2cc(C(=O)Nc3ccnnc3)c(OCc3ccccc3)cc2C(=O)N2CCOCC2)cn1 [Example 24]
IC50: ≤ 1260 nM
--
compound: CN(C)C(=O)c1cc(OCc2ccccc2)c(C(=O)Nc2cccnc2)cc1-c1cnn(C)c1 [Example 32]
IC50: ≤ 100 nM
--
compound: CN1CCN(C(=O)c2cc(OCc3ccccc3)c(C(=O)Nc3ccccc3)cc2Cl)CC1 [Example 57]
IC50: ≤ 100 nM
--
compound: CN1CCN(C(=O)c2cc(OCc3ccccc3)c(C(=O)Nc3cccnc3)cc2Cl)CC1 [Example 54]
IC50: ≤ 100 nM
--
compound: Cn1cc(-c2cc(C(=O)Nc3cccc(F)c3)c(OCc3ccc(F)cc3)cc2C(=O)N2CCOCC2)cn1 [Example 47]
IC50: ≤ 10 nM
--
compound: Cc1cc(C(=O)Nc2ccnnc2)c(OCc2ccccc2)cc1Br [Example 10]
IC50: ≤ 10 nM
--
compound: Cn1cc(-c2cc(OCc3ccc(F)cc3)c(C(=O)Nc3cccnc3)cc2CN2CCOCC2)cn1 [Example 13]
IC50: ≤ 100 nM
--
compound: Cc1cc(OCc2ccccc2)c(C(=O)Nc2cccnc2)cc1Br [Example 6]
IC50: ≤ 10 nM
